Quick reference for GI50 among some compounds
System: RXF 393
Test: NCI tumour cell line growth inhibition, 48 h
The source made the active and inactive calls. Cut-off read from the data, not from the text of the source: active = GI50 up to about 1.1 µM and inactive = higher.
Property measured: GI50

INSERT INTO measurements (compound, test_system, reported_measurement) VALUES
  ('O=c1[nH]nc(Cc2ccccc2)n1C1CC1', 'RXF 393', '> 100 µM (inactive)'),
  ('CCCCn1/c(=N/C(=S)N(C)C)ss/c1=N\C(=S)N(C)C', 'RXF 393', '> 100 µM (inactive)'),
  ('CCOC(=O)C(NC(=O)c1cccc(Cl)c1)(N1CCN(c2cc3c(cc2F)c(=O)c(C(=O)O)cn3CC)CC1)C(F)(F)F (stereo not given)', 'RXF 393', '18.2 µM (inactive)'),
  ('COc1ccc([Se]c2ccc(OC)cc2)cc1', 'RXF 393', '19.5 µM (inactive)'),
  ('COC(=O)c1c(O)ccc2c1c1c(n2Cc2ccccn2)C(=O)c2ccccc2C1', 'RXF 393', '31.6 µM (inactive)');

====

Quick reference for GI50 among some compounds
Test system: HT-29
Experiment: NCI tumour cell line growth inhibition, 48 h
The source made the active and inactive calls. Rule as the data show it: active = GI50 up to about 1.1 µM and inactive = higher.
Property measured: GI50

INSERT INTO measurements (compound, test_system, reported_measurement) VALUES
  ('COCN1C(=O)[C@@H]2C[C@@H](OC/C=C/CBr)CN2C(=O)c2ccccc21', 'HT-29', '20.2 µM (inactive)'),
  ('CCCCCCCCCCCCCCCC(=O)Nc1ccn(C2CCC(COP(=O)(O)OCC3OC(n4cc(F)c(=O)[nH]c4=O)CC3OC(C)=O)O2)c(=O)n1 (configuration not stated)', 'HT-29', '11.2 µM (inactive)'),
  ('CC(C)CCNC(=O)c1ccc(CNC(=O)/C=C/c2cccc(Oc3ccccc3)c2)cc1', 'HT-29', '30.5 µM (inactive)'),
  ('COC(=O)/C(=N\NC(=O)C[N+](C)(C)C)C(C(=O)OC)C(=O)C(=O)Nc1ccccc1C(N)=O (configuration not stated)', 'HT-29', '> 100 µM (inactive)'),
  ('C#C[C@]1(O)CC[C@H]2[C@@H]3CCC4=C/C(=N/OC(=O)c5cccc6c(=O)c7ccccc7[nH]c56)CCC4[C@H]3CC[C@@]21CC (some centres not stated)', 'HT-29', '8.28 µM (inactive)'),
  ('O=C(O)C12C3CCC(CC3)C1(C(=O)O)C1CCC2C1 (configuration not stated)', 'HT-29', '> 100 µM (inactive)'),
  ('COc1ccc(/C=C/C(=O)CCN2CCN(CCC(=O)/C=C/c3ccc(OC)cc3)CC2)cc1', 'HT-29', '10.4 µM (inactive)');

====

System: SNB-19
Assay: NCI tumour cell line growth inhibition, 48 h
Calls of active or inactive are those of the source. Cut-off read from the data, not from the text of the source: active = GI50 up to about 1.1 µM and inactive = higher.
Quick reference for GI50 among some molecules
Property measured: GI50

INSERT INTO results (molecule, test_system, reported_measurement) VALUES
  ('COc1c(O)cc2c(c1O)C1O[C@H](CO)C(O)[C@H](O)[C@H]1OC2=O (stereo partly specified)', 'SNB-19', '> 100 µM (inactive)'),
  ('N#Cc1nc(-c2ccccn2)c(-c2ccccn2)nc1C#N', 'SNB-19', '4.1 µM (inactive)'),
  ('Nc1ccc(S(=O)(=O)NCc2nccs2)cc1', 'SNB-19', '29.1 µM (inactive)'),
  ('Nc1nc(Cl)nc2c1ncn2C1CCC(CO)O1 (stereo unspecified)', 'SNB-19', '> 100 µM (inactive)'),
  ('CC1(C)CC(O)C(C)(C)[C@@H](O)C1 (stereo partly specified)', 'SNB-19', '> 100 µM (inactive)'),
  ('CC(=O)O[C@]12CCCCCC1C1(O)C(O)CCC[C@H]12 (stereo partly specified)', 'SNB-19', '> 100 µM (inactive)'),
  ('O=C1NC2(CCCC2)C2CCCCC12O (stereo unspecified)', 'SNB-19', '> 100 µM (inactive)'),
  ('C#CCSc1nc(-c2ccco2)n[nH]1', 'SNB-19', '> 100 µM (inactive)'),
  ('COC(=O)c1ccc(CCc2cc(O)c(Br)cc2O)cc1', 'SNB-19', '17.4 µM (inactive)'),
  ('Cc1nc([N+](=O)[O-])cn1-c1nc2ccccn2c1[N+](=O)[O-]', 'SNB-19', '80.2 µM (inactive)'),
  ('COc1ccc(/C=C2\CCC(CNc3ccc(OC)cc3)C2=O)cc1 (stereo unspecified)', 'SNB-19', '> 42.6 µM (inactive)'),
  ('c1ccc2c(c1)SP1Sc3ccccc3P21 (stereo unspecified)', 'SNB-19', '> 28.2 µM (inactive)'),
  ('CO/C=C(/C(=O)OC)c1ccccc1[C@H]1C[C@@H]1c1ccccc1', 'SNB-19', '48.3 µM (inactive)'),
  ('O=C1C=C(Br)c2c(Br)sc(Br)c21', 'SNB-19', '17.7 µM (inactive)'),
  ('O=C(O)CNc1cc(-c2ccccc2)nc(NCC(=O)O)n1', 'SNB-19', '> 100 µM (inactive)'),
  ('O=c1[nH]nc(-c2ccccc2)c2[nH]c3c(c12)CCCc1ccccc1-3', 'SNB-19', '10.7 µM (inactive)');
